Data provenance is ChEMBL document CHEMBL2218924.

target: Cyclin-dependent kinase 2/cyclin E (Homo sapiens) (UniProt P24864+P24941+O96020); conditions: at 1 µM
QUANTITY_KIND: residual activity (%)
Report the figure in % without appending any unit label.

compound=O=c1[nH]c2ccccc2n1C1CCN(Cc2ccc(-c3nc4cc5[nH]cnc5cc4nc3-c3ccccc3)cc2)CC1 value=111
compound="C[S+]([O-])c1ccc(-c2nc(-c3ccc(F)cc3)c(-c3ccncc3)[nH]2)cc1 (stereo not drawn)" value=105
compound=CCn1cnc2c(Nc3cccc(Cl)c3)nc(N[C@@H]3CCCC[C@@H]3N)nc21 value=4
compound=O=C1NC(=O)c2c1c1c3ccccc3n3c1c1c2c2ccccc2n1C1CCC3O1 value=66
compound=COC(=O)[C@@]1(O)C[C@H]2O[C@]1(C)n1c3ccccc3c3c4c(c5c6ccccc6n2c5c31)C(=O)NC4 value=6
compound=COc1cc2ncnc(Nc3ccc(OCc4ccccc4)cc3)c2cc1OC value=104

Exam item: // residual activity lookup, key: `CC(C)(C)c1cc(C=C(C#N)C#N)cc(Br)c1O`
Marked response: 108

Exam item: Check `O=C1Nc2ccc3ncsc3c2/C1=C/c1c[nH]cn1` too.
Marked response: 2

###

molecular target: Protein kinase C zeta type (Homo sapiens) (UniProt Q05513); conditions: at 1 µM
Sequence (Q05513 whole entry): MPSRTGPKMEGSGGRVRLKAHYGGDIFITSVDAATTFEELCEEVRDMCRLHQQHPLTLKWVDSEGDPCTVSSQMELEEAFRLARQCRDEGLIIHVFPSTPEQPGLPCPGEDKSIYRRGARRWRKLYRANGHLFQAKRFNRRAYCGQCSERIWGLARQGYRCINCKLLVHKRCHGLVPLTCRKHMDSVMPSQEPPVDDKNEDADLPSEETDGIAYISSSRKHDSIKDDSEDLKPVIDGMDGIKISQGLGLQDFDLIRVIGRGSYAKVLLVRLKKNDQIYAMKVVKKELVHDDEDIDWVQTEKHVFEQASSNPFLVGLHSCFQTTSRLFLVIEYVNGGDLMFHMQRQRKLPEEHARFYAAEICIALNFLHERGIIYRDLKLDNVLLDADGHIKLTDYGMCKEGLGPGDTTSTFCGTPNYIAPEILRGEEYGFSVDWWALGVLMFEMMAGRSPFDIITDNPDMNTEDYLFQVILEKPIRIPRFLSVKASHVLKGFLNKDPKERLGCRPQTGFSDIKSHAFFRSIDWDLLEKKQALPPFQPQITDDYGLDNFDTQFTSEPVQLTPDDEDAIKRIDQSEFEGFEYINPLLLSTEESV
QUANTITY_KIND: residual activity

compound="C[S+]([O-])c1ccc(-c2nc(-c3ccc(F)cc3)c(-c3ccncc3)[nH]2)cc1 (centres undefined)" target_or_test_system="Protein kinase C zeta type (Homo sapiens) (UniProt Q05513)" value="108% (inactive)"
compound=CCc1nc(-c2ccc(OC)cc2)[nH]c1-c1ccncc1 target_or_test_system="Protein kinase C zeta type (Homo sapiens) (UniProt Q05513)" value="105% (inactive)"
compound=O=C1c2ccccc2-c2nc3nnnn3nc21 target_or_test_system="Protein kinase C zeta type (Homo sapiens) (UniProt Q05513)" value="113% (inactive)"

Let us move to another entry and its residual activity.
Exam item: // residual activity lookup, key: `O=c1[nH]c2ccccc2n1C1CCN(Cc2ccc(-c3nc4cc5[nH]cnc5cc4nc3-c3ccccc3)cc2)CC1`
Marked response: 109% (inactive)

###

Biological target: Tyrosine-protein kinase Mer (Homo sapiens)
Sequence (whole entry): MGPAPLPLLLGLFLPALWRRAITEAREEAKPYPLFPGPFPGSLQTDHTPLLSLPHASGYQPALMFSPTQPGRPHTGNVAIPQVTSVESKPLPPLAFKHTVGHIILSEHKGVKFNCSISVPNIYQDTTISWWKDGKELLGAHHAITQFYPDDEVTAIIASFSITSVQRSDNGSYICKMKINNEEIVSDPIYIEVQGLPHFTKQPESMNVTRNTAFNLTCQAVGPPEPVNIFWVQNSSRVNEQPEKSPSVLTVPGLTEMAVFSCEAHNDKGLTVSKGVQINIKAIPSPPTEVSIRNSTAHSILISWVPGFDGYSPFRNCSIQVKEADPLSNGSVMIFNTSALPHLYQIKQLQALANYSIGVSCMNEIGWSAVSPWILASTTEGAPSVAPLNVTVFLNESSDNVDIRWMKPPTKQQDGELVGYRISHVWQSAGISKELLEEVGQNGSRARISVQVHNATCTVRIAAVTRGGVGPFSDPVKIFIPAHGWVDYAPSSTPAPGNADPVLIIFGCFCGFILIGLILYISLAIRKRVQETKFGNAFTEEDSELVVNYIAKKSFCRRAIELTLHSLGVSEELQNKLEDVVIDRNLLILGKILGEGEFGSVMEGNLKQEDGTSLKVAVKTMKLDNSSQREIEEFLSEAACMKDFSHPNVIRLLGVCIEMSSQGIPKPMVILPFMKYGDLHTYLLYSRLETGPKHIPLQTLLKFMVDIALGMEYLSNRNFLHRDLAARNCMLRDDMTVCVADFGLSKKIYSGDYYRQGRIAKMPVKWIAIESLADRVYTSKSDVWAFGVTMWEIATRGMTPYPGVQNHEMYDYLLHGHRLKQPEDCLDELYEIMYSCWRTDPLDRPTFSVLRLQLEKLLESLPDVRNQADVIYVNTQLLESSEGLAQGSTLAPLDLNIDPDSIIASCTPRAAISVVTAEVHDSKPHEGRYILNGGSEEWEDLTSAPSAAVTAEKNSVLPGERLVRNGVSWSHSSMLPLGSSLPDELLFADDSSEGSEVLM
Conditions: at 10 µM
QUANTITY_KIND: residual activity (%)
Report the figure in % without appending any unit label.

structure_string=O=C1c2ccccc2-c2nc3nnnn3nc21 quantity_kind="residual activity" value=103
structure_string=c1cc(-c2cnn3cc(-c4ccc(OCCN5CCCCC5)cc4)cnc23)ccn1 quantity_kind="residual activity" value=3
structure_string=O=[N+]([O-])/C=C/c1ccc2c(c1)OCO2 quantity_kind="residual activity" value=108
structure_string=CC(C)[C@H](CO)Nc1nc(Nc2cccc(Cl)c2)c2ncn(C(C)C)c2n1 quantity_kind="residual activity" value=0

Exam item: Param readout= residual activity; system= Tyrosine-protein kinase Mer (Homo sapiens); entry= `COc1cc(OC)c(/C=C2\C(=O)Nc3ccccc32)c(OC)c1` ; returns value.
Marked response: 93

Exam item: Check `O=C1Nc2ccc3ncsc3c2/C1=C/c1c[nH]cn1` too.
Marked response: 2

Exam item: Check `COc1cc2ncnc(Nc3ccc(OCc4ccccc4)cc3)c2cc1OC` too.
Marked response: 49

Exam item: Check `O=C1NC(=O)c2c1c1c3ccccc3n3c1c1c2c2ccccc2n1C1CCC3O1` too.
Marked response: 11
